Hey, just so you know, these numbers are from patent US20210380702A1.

study target: T1, full length human PD-L1 (amino acids 1 to 290 of NP_054862.1) on transfected cells (human, UniProt Q9NZQ7 19-290)
T1 construct: also called HEK293/hPD-L1; Raji/hPD-L1
T1 sequence (Q9NZQ7 19-290 limits assumed): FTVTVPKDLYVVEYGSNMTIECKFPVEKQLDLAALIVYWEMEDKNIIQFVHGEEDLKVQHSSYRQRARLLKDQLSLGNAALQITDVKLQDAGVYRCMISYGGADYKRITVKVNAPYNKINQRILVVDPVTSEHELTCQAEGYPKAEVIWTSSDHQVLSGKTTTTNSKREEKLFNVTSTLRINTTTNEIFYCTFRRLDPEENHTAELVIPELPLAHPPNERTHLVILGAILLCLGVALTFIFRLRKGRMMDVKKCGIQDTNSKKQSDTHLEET
test summary: FACS, 100 nM antibody, HEK293/hPD-L1 cells
assay readout: MFI (MFI)
Use MFI as the unit, but write only the number.

{"binder": "H2aM8323N (antibody, V domains shown, human variable regions, mouse IgG2 Fc (H2aM prefix); also called H2M8323N) VH: QVQLVQSGAEVKMPGSSVRVSCKASGGIFSSSTISWVRQAPGQGLEWMGEIIPVFGTVNYAQKFQDRVIFTADESTTTAYMELSSLKSGDTAVYFCARNWGLGSFYIWGQGTMVTVSS VL: EIVLTQSPGTLSLSPGERATLSCRASQSFNFNYLAWYQQKPGQAPRLLIYGASSRATGIPDRFSGSGSGTDFTLTINRLEPEDFGVFYCQQYESAPWTFGQGTKVEIK", "unit abbreviation": "MFI", "MFI": 163000}
{"binder": "H2aM8317N (antibody, V domains shown, human variable regions, mouse IgG2 Fc (H2aM prefix); also called H2M8317N) VH: EVQLVESGGGLVQPGGSLRLSCAASGFTVGSNYMNWVRQAPGKGLEWVSVIYSGGSTYYADSVKGRFTISRLTSKNTLYLQMSSLRPEDTAVYYCARGIRGLDVWGQGTTVTVSS VL: DIQMTQSPSSLSASVGDRVTITCRASQTINIYLNWYQQKPGRAPRLLIYAASSLQSGVPSRFSGSGSGTDFTLTISSLQPEDFATYYCHQSYSTPPITFGQGTRLEIK", "unit abbreviation": "MFI", "MFI": 67600}
{"binder": "H2aM8321N (antibody, V domains shown, human variable regions, mouse IgG2 Fc (H2aM prefix); also called H2M8321N) VH: EERLVESGGDLVQPGGSLRLSCAASGITVGTNYMNWVRQAPGKGLEWVSVISSGGNTHYADSVKGRFIMSRQTSKNTLYLQMNSLETEDTAVYYCARGIRGLDVWGQGTMVTVSS VL: DIQMTQSPSSLSASVGDRVTITCRASQSMSSYLNWYQQKPGRAPKLLIFAASSLQSGVPSRFSGSGSGTDFTLTISSLQPEDFATYYCQQSYSTPPITFGQGTRLEIK", "unit abbreviation": "MFI", "MFI": 112000}
{"binder": "H2aM8310N (antibody, V domains shown, human variable regions, mouse IgG2 Fc (H2aM prefix); also called H2M8310N) VH: QVQLVQSGAEVKKPGASVQVSCKASGYSFTGYYIHWVRQAPGQGLEWMGWINPNSGTKKYAHKFQGRVTMTRDTSIDTAYMILSSLISDDTAVYYCARDEDWNFGSWFDSWGQGTLVTVSS VL: DIVMTQTPLSSPVTLGQPASISCRSSQTLVHGDGNTYLSWIQQRPGQPPRLLIYKVSNQFSGVPDRFSGSGAGTDFTLKISRVEAEDVGLYFCMQATHFPITFGQGTRLEIK", "unit abbreviation": "MFI", "MFI": 14900}
{"binder": "H2aM8314N (antibody, V domains shown, human variable regions, mouse IgG2 Fc (H2aM prefix); also called H2M8314N) VH: EVQLVESGGGVVRPGGSLRLSCAASGFTFDDYGMTWVRQAPGRGLEWVSGIHWHGKRTGYADSVKGRFTISRDNAKKSLYLQMNSLKGEDTALYHCVRGGMSTGDWFDPWGQGTLVIVSS VL: DIQMTQSPSSLSASLGDRVTITCRASQSINSYLNWYQQKPGKAPKLLIYVASSLQSGVPSRFSGSGSGTEFTLTISNLQPEDFATYYCQQSYSTPPITFGQGTRLEIK", "unit abbreviation": "MFI", "MFI": 195000}

Now consider the entry below.
Prompt: # return recorded MFI for input H1H9336P (antibody, V domains shown, human IgG1 Fc (H1H prefix)) VH: EVQLVESGGGLVQPGRSLRLSCAASGFTFDDFAMHWVRQAPGKGLEWVSGISWTGGNMDYANSVKGRFTISREDAKNSLYLQMNSLRAADTALYYCVKDIRGIVATGGAFDIWGRGTMVTVSS VL: DIQMTQSPSSLSASVGDRVTISCRASQTISTYLNWFQQKPGKAPKLLIYVVSSLQSGVPSRFSGSGSGTDFTLTISSLQPEDFATYYCQQSYSTPFTFGPGTKVDIK
Response: 379000
